testedSystem: Neu5Ac(a2-3)Gal(b1-4)GlcNAc(b1-3)[Neu5Ac(a2-3)Gal(b1-4)GlcNAc(b1-6)]GalNAc
test: glycan array binding signal (z-score within array); higher = stronger binding
setupConditions: glycan notation: IUPAC condensed, linker removed
This excerpt belongs to a sample that is enriched for the strongest signals.
propertyLabel: glycan array binding signal (z-score)
Please reply with the number alone, leaving off any unit.

Consider the reported glycan array binding signal (z-score) for these binders:
input: Please look up its glycan array binding signal (z-score): Cohesin-hDECTIN-1 (Homo sapiens) (protein) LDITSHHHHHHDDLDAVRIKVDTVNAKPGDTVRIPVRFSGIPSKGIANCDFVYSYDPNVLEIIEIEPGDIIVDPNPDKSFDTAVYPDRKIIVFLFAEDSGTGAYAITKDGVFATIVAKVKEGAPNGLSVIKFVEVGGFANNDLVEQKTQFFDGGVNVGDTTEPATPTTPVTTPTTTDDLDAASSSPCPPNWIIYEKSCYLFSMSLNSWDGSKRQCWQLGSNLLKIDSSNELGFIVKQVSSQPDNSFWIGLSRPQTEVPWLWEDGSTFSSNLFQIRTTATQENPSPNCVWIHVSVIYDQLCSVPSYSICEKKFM
output: -0.163

input: Please look up its glycan array binding signal (z-score): Arath Fbox LD (Arabidopsis thaliana) (protein) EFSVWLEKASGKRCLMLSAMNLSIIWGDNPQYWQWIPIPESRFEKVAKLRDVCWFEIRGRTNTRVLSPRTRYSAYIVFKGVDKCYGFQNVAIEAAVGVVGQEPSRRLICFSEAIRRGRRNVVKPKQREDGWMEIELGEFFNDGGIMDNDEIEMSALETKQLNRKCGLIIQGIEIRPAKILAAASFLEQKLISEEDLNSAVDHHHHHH
output: -0.595

input: Please look up its glycan array binding signal (z-score): CGL (Crenomytilus grayanus), H2FH31 (protein) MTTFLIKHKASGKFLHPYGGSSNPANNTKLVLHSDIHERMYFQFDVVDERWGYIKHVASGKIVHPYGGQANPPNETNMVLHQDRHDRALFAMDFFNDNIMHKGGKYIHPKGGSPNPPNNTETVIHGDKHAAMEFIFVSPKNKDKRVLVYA
output: -0.248

input: Please look up its glycan array binding signal (z-score): MGL (Homo sapiens), Q8IUN9 (protein) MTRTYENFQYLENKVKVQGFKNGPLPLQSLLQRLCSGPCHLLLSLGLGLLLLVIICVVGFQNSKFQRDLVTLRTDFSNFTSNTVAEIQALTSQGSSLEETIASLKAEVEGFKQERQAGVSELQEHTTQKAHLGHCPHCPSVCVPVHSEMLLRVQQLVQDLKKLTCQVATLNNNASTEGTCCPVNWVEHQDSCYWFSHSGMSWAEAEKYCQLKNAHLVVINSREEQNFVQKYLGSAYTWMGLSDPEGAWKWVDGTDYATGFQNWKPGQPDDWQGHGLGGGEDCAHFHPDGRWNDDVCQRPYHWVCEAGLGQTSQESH
output: -0.527

input: Please look up its glycan array binding signal (z-score): ACA (Amaranthus caudatus) (protein) MAGLPVIMCLKSNNNQKYLRYQSDNIQQYGLLQFSADKILDPLAQFEVEPSKTYDGLVHIKSRYTNKYLVRWSPNHYWITASANEPDENKSNWACTLFKPLYVEEGNMKKVRLLHVQLGHYTQNYTVGGSFVSYLFAESSQIDTGSKDVFHVIDWKSIFQFPKRYVTFKGNNGKYLGVITINQLPCLQFGYDNLNDPKVAHEMFVTSNGTICIKSTYMNKFWRLSTDDWILVDGNDPRETNEAAALFRSDVHDFNVISLLNMQKTWFIKRFTSGKPGFINCMNAATQNVDETAILEIIELGSNN
output: 0.132

Could you now look at the following binder, please?
input: Please look up its glycan array binding signal (z-score): CrataBL (Crataeva tapia), C0HJA4 (protein) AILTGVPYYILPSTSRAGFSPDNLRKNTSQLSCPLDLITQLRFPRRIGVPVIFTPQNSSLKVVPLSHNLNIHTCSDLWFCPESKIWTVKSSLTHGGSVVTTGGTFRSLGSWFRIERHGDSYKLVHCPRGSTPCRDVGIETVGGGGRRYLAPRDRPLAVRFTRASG
output: 0.163
